# IC50 (pM), ISRE assay listing for each entry below
Biological target: IFN-αI (human, UniProt P01571 24-189)
Experiment: cell-based or functional assay
Report only the number, with the unit pM understood.

Solved cases below.
BINDER	UNIT ABBREV	MEASURED NUMBER
IFWM3307 (antibody, IgG1, V domains shown) VH: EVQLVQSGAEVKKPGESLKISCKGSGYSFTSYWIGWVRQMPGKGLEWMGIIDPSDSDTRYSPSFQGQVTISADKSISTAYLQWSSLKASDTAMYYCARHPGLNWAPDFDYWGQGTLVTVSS VL: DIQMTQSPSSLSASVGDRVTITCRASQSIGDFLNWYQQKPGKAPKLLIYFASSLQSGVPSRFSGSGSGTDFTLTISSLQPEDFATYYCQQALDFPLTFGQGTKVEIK	pM	752
IFWM3405 (antibody, IgG1, V domains shown) VH: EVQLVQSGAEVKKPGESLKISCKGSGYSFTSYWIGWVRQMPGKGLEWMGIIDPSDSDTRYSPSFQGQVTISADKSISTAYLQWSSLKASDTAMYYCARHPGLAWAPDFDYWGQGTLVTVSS VL: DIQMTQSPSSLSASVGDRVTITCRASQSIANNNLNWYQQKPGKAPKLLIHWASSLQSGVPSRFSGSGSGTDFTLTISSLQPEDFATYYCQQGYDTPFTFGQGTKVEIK	pM	72

Q: Given the entry IFWM3304 (antibody, IgG1, V domains shown) VH: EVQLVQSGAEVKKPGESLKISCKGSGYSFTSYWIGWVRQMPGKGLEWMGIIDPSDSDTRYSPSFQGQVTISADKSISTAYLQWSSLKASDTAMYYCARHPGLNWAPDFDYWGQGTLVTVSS VL: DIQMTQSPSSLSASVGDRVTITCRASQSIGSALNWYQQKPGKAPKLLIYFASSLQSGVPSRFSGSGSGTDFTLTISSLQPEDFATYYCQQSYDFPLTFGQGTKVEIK , report its measured IC50 (pM), ISRE assay.
Result: 157
